Tested on: wheat (Triticum spp.)
TEST_METHOD_NOTES: Test Example 2: soil application on the day after sowing, wheat
Format: in vivo
TEST_CONDITIONS: 250 g/ha active ingredient, observed 19th to 28th day after application
Catalogue of compounds with associated Growth inhibition rate (%) Wheat
MEASURED_ENDPOINT: Growth inhibition rate (%) Wheat

{"STRUCTURE": "COCCOc1c(S(C)(=O)=O)ccc(C(=O)c2c(C)nn(C(C)C)c2O)c1C", "MEASURED_ENDPOINT": "Growth inhibition rate (%) Wheat", "UNIT_SPEC": "%", "VALUE_MEASURED": 20}
{"STRUCTURE": "CCc1nn(C)c(O)c1C(=O)c1ccc(S(C)(=O)=O)c(OCCOC)c1C", "MEASURED_ENDPOINT": "Growth inhibition rate (%) Wheat", "UNIT_SPEC": "%", "VALUE_MEASURED": 0}
{"STRUCTURE": "COC(=O)Cc1c(S(C)(=O)=O)ccc(C(=O)c2cnn(C)c2O)c1C", "MEASURED_ENDPOINT": "Growth inhibition rate (%) Wheat", "UNIT_SPEC": "%", "VALUE_MEASURED": 0}
{"STRUCTURE": "CCn1ncc(C(=O)c2ccc(S(C)(=O)=O)c(OCCOC)c2C)c1O", "MEASURED_ENDPOINT": "Growth inhibition rate (%) Wheat", "UNIT_SPEC": "%", "VALUE_MEASURED": 40}
{"STRUCTURE": "COCCOc1c(S(C)(=O)=O)ccc(C(=O)c2c(C)nn(C)c2O)c1C", "MEASURED_ENDPOINT": "Growth inhibition rate (%) Wheat", "UNIT_SPEC": "%", "VALUE_MEASURED": 0}
{"STRUCTURE": "COCCOc1c(S(C)(=O)=O)ccc(C(=O)c2cnn(C(C)C)c2O)c1C", "MEASURED_ENDPOINT": "Growth inhibition rate (%) Wheat", "UNIT_SPEC": "%", "VALUE_MEASURED": 0}
{"STRUCTURE": "CCCOC(=O)c1c(S(C)(=O)=O)ccc(C(=O)c2cnn(CC)c2O)c1Cl", "MEASURED_ENDPOINT": "Growth inhibition rate (%) Wheat", "UNIT_SPEC": "%", "VALUE_MEASURED": 0}
{"STRUCTURE": "Cc1c(C(=O)c2cnn(C)c2O)ccc(S(C)(=O)=O)c1OC(C)C", "MEASURED_ENDPOINT": "Growth inhibition rate (%) Wheat", "UNIT_SPEC": "%", "VALUE_MEASURED": 0}

Data origin, for the record: patent US20100317528A1
